target: T1, cynomolgus TIGIT (cynomolgus monkey); assay: flow cytometry, 1 µg/mL on activated primary cyno PBMCs, fold over isotype control
T1 construct: Cell-surface form; also called cyno TIGIT
T1 sequence (chain, as listed by the source): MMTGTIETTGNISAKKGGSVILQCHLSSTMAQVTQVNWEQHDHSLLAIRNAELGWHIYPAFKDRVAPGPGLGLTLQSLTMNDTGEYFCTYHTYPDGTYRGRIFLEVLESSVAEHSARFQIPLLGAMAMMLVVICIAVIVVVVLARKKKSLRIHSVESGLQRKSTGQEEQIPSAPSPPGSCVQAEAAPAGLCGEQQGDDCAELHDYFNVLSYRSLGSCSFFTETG
Each item that follows carries a reported FACS Geomean Fold.
Write the value in fold as a bare number.

Examples with answers:
66H9 (antibody, V domains shown, Fully human XenoMouse antibody, tested as hybridoma supernatant or purified mAb) VH: QVQLQESGPGLVKPSQTLSLTCTVSGGSISSVYFYWNWIRQHPGKGLEWIGYIYYSGGTYYNPSLRSRVTISVDTSKNQFSLKLNSVTAADTAVYYCARGSIAAGGGYFYYNDMDVWGQGTTVTVSS VL: EIVLTQSPDFQSVTPKEKVAITCRASQSIGSSLHWYQQKPDQSPKPLIKYVSQSFSGVPSRFSGSGSGTDFTLTINSLEAEDAATYYCHQSSSLPLTFGGGTKVEIKR :: 4
43B7 (antibody, V domains shown, Fully human XenoMouse antibody, tested as hybridoma supernatant or purified mAb) VH: QVQLQESGPGLVKPSQTLSLTCTVSGGSISSGGYYWSWIRQHPGKGLEWIGYIYYRGGTYYNPSLRSRVTMSVDTSKNQFSLMLSSVTAADTAVYYCARTIFGVIILDNWGQGTPVTVSS VL: DIQMTQSPSSLSASVGDRVTITCRSSQSISSYLNWYQQKPGRAPKLLIHAASSLQSGVPSRFSGSGSGTDFTLTISSLQPEDFASYCCQQSYTTPPTFGGGTKVEIKR :: 4.7
55G7 (antibody, V domains shown, Fully human XenoMouse antibody, tested as hybridoma supernatant or purified mAb) VH: QVQLVESGGGVVQPGRSLRLSCAASGFTFSSYGMHWVRQAPGKGLEWVALIWFDESNIYYADSVKGRFTISRDNSKNTLYLQMNSLRAEDTAVYFCARGYDLLTGYYNFDFWGLGTLVTVSA VL: QAGLTQPPSVSKGLRQTATLTCTGNTNNVGNRGAAWLQQHQGHPPKLLSYRNNNRPSGISERLSASRSGNTASLTITGLQPEDEADYYCSAWDSSLSAWVFGGGTKLTVLG :: 12.3

Let's switch to this binder now.
Exam item: I would be grateful if you could share the reported FACS Geomean Fold for 58A7 (antibody, V domains shown, Tested as hybridoma supernatant or purified mAb; also called 48B7) VH: QVQLQESGPGLVKPSQTLSLTCTVSGGSISSGGYYWNWIRQHPGKGLEWIGYIYYSGSTFYNPSLKSRVIISVDTSKNQFSLKLSSVTAADTAVYYCARAPRYNWNYGWFDPWGQGTLVTVSS VL: EIVLTQSPGTLSLSPGERATLSCRASQNVSSTYLAWYQQKPGQAPRLLFYGASSRATGIPDRFSRSGSGTDFTLTISRLEPEDFAVYYCQQYDVSPWTFGQGTKVEIK .
Marked response: 7.2

Hello, the source for this data is patent US20220017616A1, in case you need it.
